Molecular target: T1, recombinant human Pds5B_(21–1120) (human, UniProt Q9NTI5 21-1120)
T1 sequence (looked up): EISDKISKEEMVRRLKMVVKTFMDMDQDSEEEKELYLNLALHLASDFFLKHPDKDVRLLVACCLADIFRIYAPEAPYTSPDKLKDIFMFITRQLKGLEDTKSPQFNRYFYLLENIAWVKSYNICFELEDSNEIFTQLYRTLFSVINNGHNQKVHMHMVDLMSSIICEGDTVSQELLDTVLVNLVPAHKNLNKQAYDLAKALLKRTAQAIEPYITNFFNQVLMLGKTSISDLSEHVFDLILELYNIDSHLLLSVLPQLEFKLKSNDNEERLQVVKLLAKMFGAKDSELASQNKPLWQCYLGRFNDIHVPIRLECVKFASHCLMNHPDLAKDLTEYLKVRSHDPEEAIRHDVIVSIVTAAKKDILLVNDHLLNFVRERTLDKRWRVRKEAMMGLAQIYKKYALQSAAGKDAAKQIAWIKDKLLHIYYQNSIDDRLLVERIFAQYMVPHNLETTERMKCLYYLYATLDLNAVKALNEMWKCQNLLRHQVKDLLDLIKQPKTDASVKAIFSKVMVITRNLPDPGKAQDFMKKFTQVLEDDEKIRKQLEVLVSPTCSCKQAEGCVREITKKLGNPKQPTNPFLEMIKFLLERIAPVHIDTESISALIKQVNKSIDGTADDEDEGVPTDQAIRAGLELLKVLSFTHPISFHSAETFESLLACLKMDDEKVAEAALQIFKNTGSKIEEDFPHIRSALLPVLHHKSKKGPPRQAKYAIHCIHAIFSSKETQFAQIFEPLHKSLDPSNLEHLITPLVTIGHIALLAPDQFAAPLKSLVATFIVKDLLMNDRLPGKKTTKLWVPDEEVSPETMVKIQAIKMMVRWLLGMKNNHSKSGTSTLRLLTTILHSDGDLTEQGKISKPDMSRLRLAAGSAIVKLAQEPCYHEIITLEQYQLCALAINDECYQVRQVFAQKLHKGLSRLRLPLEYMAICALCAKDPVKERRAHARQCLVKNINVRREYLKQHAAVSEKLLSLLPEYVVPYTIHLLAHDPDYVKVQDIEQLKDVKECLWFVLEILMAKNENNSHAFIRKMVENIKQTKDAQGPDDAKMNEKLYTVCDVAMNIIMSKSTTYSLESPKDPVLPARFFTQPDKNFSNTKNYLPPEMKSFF
Test: ITC

- binder: "recombinant purified Scc1_(76–150) (domain or fragment, human, UniProt O60216 76-150, looked up) ADCNEAFIKIKMAFRPGVVDLPEENREAAYNAITLPEEFHDFDQPLPDLDDIDVAQQFSLNQSRVEEITMREEVG"
  Kd / nM: 4.3

Hey, just so you know, these numbers are from paper PMC5560056.
